target: human V1a receptor (Homo sapiens, UniProt P37288); construct: expressed in transfected cells; host or cells: HEK293 cells, transiently transfected; cell membranes; assay: human V1a receptor binding studies (3H-Vasopressin, SPA beads); settings: membranes of HEK293 cells transiently transfected with human V1a receptor, Ki by Cheng-Prussoff from IC50, read-out: pKi hV1a (converted)
Sequence (P37288 whole entry): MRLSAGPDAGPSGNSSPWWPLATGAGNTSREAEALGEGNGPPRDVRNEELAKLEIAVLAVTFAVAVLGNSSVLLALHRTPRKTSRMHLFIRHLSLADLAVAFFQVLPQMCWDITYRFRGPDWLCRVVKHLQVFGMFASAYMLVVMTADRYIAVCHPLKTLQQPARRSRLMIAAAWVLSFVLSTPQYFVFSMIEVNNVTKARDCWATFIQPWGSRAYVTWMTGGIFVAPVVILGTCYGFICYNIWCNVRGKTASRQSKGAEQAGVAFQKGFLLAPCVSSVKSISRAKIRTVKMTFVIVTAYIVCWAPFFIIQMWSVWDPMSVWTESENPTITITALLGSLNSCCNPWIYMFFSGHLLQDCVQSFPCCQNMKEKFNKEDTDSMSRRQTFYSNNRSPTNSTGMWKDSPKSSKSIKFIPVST
property: Ki (nM)

molecule | Ki / nM
C=CCC1(CC(=C)CO[Si](C)(C)C(C)(C)C)OC(N2CCC3(CC2)OCc2ccccc23)=NC1=O (stereo not shown) [Example 65] | 63.1

1: O=C1C=C2CC3(CC2C1)OC(N1CCC2(CC1)OCc1ccccc12)=NC3=O (stereo not shown) [Example 142]
2: CC(c1ccccc1)C1(C)OC(N2CCC3(CC2)OCc2ccccc23)=NC1=O (single isomer, unassigned; diastereomer b) [Example 111]
Query: Among 1 and 2 , whose measured Ki is the smaller figure? State the label of the item chosen.
Reply: 1

a: CC1(CC2CCCC2)OC(N2CCC3(CC2)OCc2ccccc23)=NC1=O (single isomer, unassigned; (+)) [Example 77]
b: CCC1(Cc2ccccc2)OC(N2CCC3(CC2)OCc2ccccc23)=NC1=O (stereo not shown) [Example 74]
Query: Among a and b , whose measured Ki is the smaller figure? State the label of the item chosen.
Reply: a

A: CC#CCC1(CC#CC)OC(N2CCC3(CC2)OCc2ccccc23)=NC1=O [Example 55]
B: CC1(CC2CCCOC2)OC(N2CCC3(CC2)OCc2ccccc23)=NC1=O (single isomer, unassigned; diastereomer b) [Example 105]
Query: From the recorded data, which exceeds the other in Ki: A or B ? State the label of the item chosen.
Reply: B
(B: 501 nM, A: 5.01 nM)
